System: THP-1
assay_protocol: Anti-inflammatory activity in Homo sapiens (human) THP1 cells assessed as inhibition of LPS-induced IL6 production at 10 uM incubated for 30 min prior to LPS-challenge measured after 24 hr by ELISA relative to control
Assay type: functional
metric_name: inhibition at 10 µM (%)
Numbers only here, please. The scale is %.

Entry `CC(C)c1ccc(NC(=O)NCCNc2ccnc3c(F)cc(F)cc23)cc1` needs its inhibition at 10 µM filled in; supply it. 82

Consider the compound `Cc1ccc(F)cc1NC(=O)NCCNc1ccnc2c(F)cc(F)cc12` . State its measured inhibition at 10 µM. 40

Look up and report measured inhibition at 10 µM for this entry: `O=C(NCCNc1ccnc2c(F)cc(F)cc12)Nc1ccc(OC(F)(F)F)cc1` 28

Complete the entry with inhibition at 10 µM for `Cc1ccc(NC(=O)NCCNc2ccnc3c(F)cc(F)cc23)cc1C` 16

Item `O=C(NCCNc1ccnc2c(F)cc(F)cc12)Nc1ccc(C(F)(F)F)cc1` : provide inhibition at 10 µM 35

Give the measured inhibition at 10 µM for `O=c1cc[nH]c2c(F)cc(F)cc12` 0

Tell me inhibition at 10 µM reported for `Fc1cc(F)c2nccc(Cl)c2c1` 0

Answer with reported inhibition at 10 µM of `NCCNc1ccnc2c(F)cc(F)cc12` 0

Specify measured inhibition at 10 µM for `O=C(NCCNc1ccnc2c(F)cc(F)cc12)Nc1cc(C(F)(F)F)ccc1Cl` . 80

// fetch inhibition at 10 µM given entry `O=C(NCCNc1ccnc2c(F)cc(F)cc12)Nc1ccccc1F` 18

Determine its reported inhibition at 10 µM: `O=C(NCCNc1ccnc2c(F)cc(F)cc12)Nc1cccc(Cl)c1F` 27

Find the measured inhibition at 10 µM of `O=C(NCCNc1ccnc2c(F)cc(F)cc12)Nc1ccccc1OC(F)(F)F` and report it. 96

Look up and report measured inhibition at 10 µM for this entry: `O=C(NCCNc1ccnc2c(F)cc(F)cc12)Nc1ccccc1C(F)(F)F` 90

* * *

Tested on: Bacillus subtilis
assay_protocol: Antibacterial activity against Bacillus subtilis MTCC 441 after 24 hr by agar well diffusion method
Assay type: functional
measurement_conditions: MTCC 441, 24 h
metric_name: MIC (µg/mL)
# unit: µg/mL | format: bare number

For the compound `Cc1ccc(NC(=O)NCCNc2ccnc3c(F)cc(F)cc23)cc1C` , give its measured MIC value. 30

Return MIC (reported value) for this compound: `O=C(NCCNc1ccnc2c(F)cc(F)cc12)Nc1ccccc1F` 20

State its MIC: `O=C(NCCNc1ccnc2c(F)cc(F)cc12)Nc1ccc(C(F)(F)F)cc1` 90

Indicate its recorded MIC; the compound in question is `Cc1ccc(F)cc1NC(=O)NCCNc1ccnc2c(F)cc(F)cc12` 20

Specify reported MIC for the compound shown: `O=C(NCCNc1ccnc2c(F)cc(F)cc12)Nc1cccc(Cl)c1F` 90

Give me measured MIC, please, for this compound: `O=C(NCCNc1ccnc2c(F)cc(F)cc12)Nc1cc(C(F)(F)F)ccc1Cl` 25

Please give measured MIC of the following entry: `O=C(NCCNc1ccnc2c(F)cc(F)cc12)Nc1ccccc1C(F)(F)F` 10

Return the recorded MIC value; entry: `CC(C)c1ccc(NC(=O)NCCNc2ccnc3c(F)cc(F)cc23)cc1` 35

Answer with the recorded MIC for the compound listed here: `O=C(O)c1cn(C2CC2)c2cc(N3CCNCC3)c(F)cc2c1=O` 15
